# Fold depletion in AML listing for each entry below
- System: tet-on competent MLL/AF9+Nras AML
- Assay Notes: Pooled negative selection RNAi screening (deep sequencing)
- Type: cell-based, mouse
- Cond: deep sequencing reads, On Dox compared to T0
Value Type: Fold depletion in AML

- Cdc42ep1.317: shRNA, SEQ ID NO: 103 (nucleic acid) TGCTGTTGACAGTGAGCGCCTAGCAGTTGTAAGCAATCAATAGTGAAGCCACAGATGTATTGATTGCTTACAACTGCTAGTTGCCTACTGCCTCGGA: 14.91 Fold
- Ntrk3.167: shRNA, SEQ ID NO: 156 (nucleic acid) TGCTGTTGACAGTGAGCGCCTGCAGCAAGACTGAGATCAATAGTGAAGCCACAGATGTATTGATCTCAGTCTTGCTGCAGATGCCTACTGCCTCGGA: 8.88 Fold
- Myo7a.618: shRNA, SEQ ID NO: 149 (nucleic acid) TGCTGTTGACAGTGAGCGCCCGCCAGTACACCAACAAGAATAGTGAAGCCACAGATGTATTCTTGTTGGTGTACTGGCGGATGCCTACTGCCTCGGA: 14.79 Fold
- Bcl2.906: shRNA, SEQ ID NO: 98 (nucleic acid) TGCTGTTGACAGTGAGCGCGCACAGGAATTTTGTTTAATATAGTGAAGCCACAGATGTATATTAAACAAAATTCCTGTGCATGCCTACTGCCTCGGA: 12.28 Fold
